target.under.test: UniProt P48067
Sequence (P48067 1-652 isoform P48067-3): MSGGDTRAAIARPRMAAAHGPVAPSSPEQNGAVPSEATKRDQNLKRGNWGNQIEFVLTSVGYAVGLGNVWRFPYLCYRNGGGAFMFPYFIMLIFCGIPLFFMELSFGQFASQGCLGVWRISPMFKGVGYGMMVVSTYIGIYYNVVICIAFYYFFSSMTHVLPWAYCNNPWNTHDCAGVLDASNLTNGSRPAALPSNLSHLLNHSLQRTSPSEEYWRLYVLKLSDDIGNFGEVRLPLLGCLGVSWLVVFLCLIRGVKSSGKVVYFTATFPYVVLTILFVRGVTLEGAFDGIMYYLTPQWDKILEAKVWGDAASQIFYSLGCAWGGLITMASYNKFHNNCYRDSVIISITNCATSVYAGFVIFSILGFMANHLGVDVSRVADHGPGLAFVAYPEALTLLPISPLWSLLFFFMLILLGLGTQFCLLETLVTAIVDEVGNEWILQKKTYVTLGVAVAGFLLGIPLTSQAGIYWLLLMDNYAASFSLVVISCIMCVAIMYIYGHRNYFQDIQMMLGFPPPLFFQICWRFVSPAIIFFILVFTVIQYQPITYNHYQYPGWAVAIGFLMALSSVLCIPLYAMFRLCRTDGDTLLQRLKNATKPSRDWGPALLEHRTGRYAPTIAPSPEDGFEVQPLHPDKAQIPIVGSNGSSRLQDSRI
measurement.notes: Glycine uptake inhibition in CHO cells expressing GlyT1
condition.context: 60 nM [3H]-glycine, read-out: IC50 for tritiated glycine uptake
pIC50: −log10 of the molar value.
quantity.name: pIC50

1. CC(C)c1cc2c(c(O)c1O)[C@@]13CCCC(C)(C)[C@@H]1C[C@@H]2OC3=O [Carnosol, carnosol]
4.53
2. CN(CC[C@@H](Oc1ccc(C(F)(F)F)cc1)c1ccccc1)CC(=O)O [ORG24598, reference compound]
7.70

---

target.under.test: UniProt:P23975
Sequence (P23975 whole entry): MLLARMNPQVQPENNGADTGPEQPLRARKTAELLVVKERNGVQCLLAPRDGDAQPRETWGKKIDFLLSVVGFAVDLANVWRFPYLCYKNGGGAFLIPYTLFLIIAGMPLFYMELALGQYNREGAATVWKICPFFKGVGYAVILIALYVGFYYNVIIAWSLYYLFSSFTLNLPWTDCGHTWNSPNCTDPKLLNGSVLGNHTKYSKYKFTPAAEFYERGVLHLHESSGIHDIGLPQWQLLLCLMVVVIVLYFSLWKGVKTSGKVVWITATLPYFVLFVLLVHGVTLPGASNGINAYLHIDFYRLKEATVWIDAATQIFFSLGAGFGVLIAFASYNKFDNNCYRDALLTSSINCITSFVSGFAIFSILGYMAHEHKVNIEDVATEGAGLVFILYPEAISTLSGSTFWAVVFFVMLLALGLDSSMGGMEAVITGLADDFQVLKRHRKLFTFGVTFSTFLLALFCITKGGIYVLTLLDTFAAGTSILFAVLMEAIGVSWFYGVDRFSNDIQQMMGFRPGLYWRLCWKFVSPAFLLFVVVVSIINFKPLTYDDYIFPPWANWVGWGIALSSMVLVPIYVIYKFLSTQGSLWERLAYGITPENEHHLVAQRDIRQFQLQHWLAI
measurement.notes: Noradrenaline uptake inhibition in MDCK cells expressing hNAT
quantity.name: IC50

1. CC(C)c1cc2c(c(O)c1O)[C@@]13CCCC(C)(C)[C@@H]1C[C@@H]2OC3=O
30.6 µM
